Literature roundup of Adenosine receptor A3 (Homo sapiens, UniProt P0DMS8) data, read-out pKi.
pKi: −log10 of the molar value.
READOUT_KIND: pKi

Here is how some compounds turned out for pKi.
{"COMPOUND_STRUCTURE_STRING": "O=C(O)c1cnc(NCc2ccccc2)n2nc(-c3ccco3)nc12", "pKi": 5.65}
{"COMPOUND_STRUCTURE_STRING": "COc1ccc(-n2cc3c(n2)c(NC(C)=O)nc2ccccc23)cc1", "pKi": 6.99}

P. O=C(OCc1ccccc1)c1nc2c(O)nc3ccccc3n2n1
Q. CNC(=O)[C@@]12C[C@@H]1[C@@H](n1cnc3c(NC4CC4)nc(C#Cc4ccc(Cl)s4)nc31)[C@H](O)[C@@H]2O
R. COc1cccc(CNc2nc(N)c3nc(-c4ccc(C)o4)sc3n2)c1
Q: Put the items in sequence by pKi, from largest down. Would you mind listing the labels in the order requested?
A: Q, P, R

###

Target: Adenosine receptor A3 (Homo sapiens)
Sequence (P0DMS8 whole entry): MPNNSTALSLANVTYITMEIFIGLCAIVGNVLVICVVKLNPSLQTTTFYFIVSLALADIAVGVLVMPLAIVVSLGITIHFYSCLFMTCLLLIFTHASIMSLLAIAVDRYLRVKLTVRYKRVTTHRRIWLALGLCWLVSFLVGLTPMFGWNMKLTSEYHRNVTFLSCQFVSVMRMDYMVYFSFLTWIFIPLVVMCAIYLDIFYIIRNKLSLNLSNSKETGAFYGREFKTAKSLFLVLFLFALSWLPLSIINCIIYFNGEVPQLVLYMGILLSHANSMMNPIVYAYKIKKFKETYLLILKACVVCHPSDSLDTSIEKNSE
pKi: −log10 of the molar value.
Literature roundup of Adenosine receptor A3 (Homo sapiens) data, read-out pKi.

{"COMPOUND_STRUCTURE_STRING": "Cn1c(=O)c2c(nc3n2CCN(CCCn2ccnc2)C3)n(C)c1=O", "pKi": "< 5.00"}
{"COMPOUND_STRUCTURE_STRING": "CCNC(=O)[C@H]1O[C@@H](n2cnc3c(NNC(=O)c4cc(C)on4)nc(Cl)nc32)[C@H](O)[C@@H]1O", "pKi": "< 5.30"}
{"COMPOUND_STRUCTURE_STRING": "O=c1c(-c2ccccc2)nnc2n(Cc3ccccc3)c3ccccc3n12", "pKi": "< 6.00"}

Could you now consider this next molecule?
Q: GET pKi | system: Adenosine receptor A3 (Homo sapiens) | item: Nc1nc(N2CCC(CNC(=O)c3ccc(S(N)(=O)=O)cc3)CC2)nc2sc(-c3ccco3)nc12
A: < 5.00

###

Literature roundup of Adenosine receptor A3 (Homo sapiens, UniProt P0DMS8) data, read-out Ki.

{"COMPOUND_STRUCTURE_STRING": "CCNC(=O)[C@H]1O[C@@H](n2cnc3c(NNC(=O)c4ccc(Cl)cc4)ncnc32)[C@H](O)[C@@H]1O", "READOUT_KIND": "Ki", "VALUE": "> 5 µM"}
{"COMPOUND_STRUCTURE_STRING": "CCCn1c(=O)c2[nH]c(-c3cc(C)n(CC(=O)Nc4ccc(I)cc4)n3)nc2n(CCC)c1=O", "READOUT_KIND": "Ki", "VALUE": "> 1 µM"}

Could you now consider this next compound?
Q: GET Ki | system: Adenosine receptor A3 (Homo sapiens, UniProt P0DMS8) | item: CCCN1C(=O)N2C[C@@H](CC)N=C2c2[nH]c(C34CCC(CCC(=O)O)(CC3)CC4)nc21
A: > 10 µM

###

Literature roundup of Adenosine receptor A3 (Homo sapiens, UniProt P0DMS8) data, read-out pKi.
pKi: −log10 of the molar value.
READOUT_KIND: pKi

{"COMPOUND_STRUCTURE_STRING": "Cn1cc2c(nc(NCCO)n3nc(-c4ccco4)nc23)n1", "TESTED_SYSTEM": "Adenosine receptor A3 (Homo sapiens, UniProt P0DMS8)", "pKi": 6.51}
{"COMPOUND_STRUCTURE_STRING": "O=C(Nc1cccc(Cl)c1)Nc1nc2nn(CCc3c(Br)cc(Br)cc3Br)cc2c2nc(-c3ccco3)nn12", "TESTED_SYSTEM": "Adenosine receptor A3 (Homo sapiens, UniProt P0DMS8)", "pKi": 7.15}

I. CCOC(=O)c1nc(NC(=O)c2ccccc2)nc2nn(CCc3ccccc3)cc12
II. COc1ccn2c(c1)nc1c2c(=O)n(CC2CC2)c(=O)n1Cc1cccc(Cl)c1
III. Nc1nc(OCCc2cc3ccccc3[nH]2)nc2c1ncn2[C@@H]1O[C@H](CO)[C@@H](O)[C@H]1O
IV. O=C(Nc1nc2ccccc2c2cn(-c3ccc(C(F)(F)F)cc3)nc12)c1ccccc1
Q: Put the items in sequence by pKi, from largest down. Would you mind listing the labels in the order requested?
A: II, IV, III, I

###

Literature roundup of Adenosine receptor A3 (Homo sapiens, UniProt P0DMS8) data, read-out Ki.

Here is how some molecules turned out for Ki.
{"COMPOUND_STRUCTURE_STRING": "O=C(O)c1cnn(-c2nc(NC34CCC(CC3)C4)c3ncn([C@@H]4O[C@H](CO)[C@@H](O)[C@H]4O)c3n2)c1", "Ki": "> 5 µM"}
{"COMPOUND_STRUCTURE_STRING": "O=C(Nc1nc(-c2ccccc2)c(-c2ccccn2)s1)c1ccccc1", "Ki": "> 1 µM"}

Could you now consider this next molecule?
Q: GET Ki | system: Adenosine receptor A3 (Homo sapiens, UniProt P0DMS8) | item: CCOC(=O)[C@H]1Oc2ccc(CCCn3ncc4c3nc(N)n3nc(-c5ccco5)nc43)cc2O1
A: > 10 µM

###

Literature roundup of Adenosine receptor A3 (Homo sapiens, UniProt P0DMS8) data, read-out pKi.
pKi: −log10 of the molar value.
READOUT_KIND: pKi

Here is how some molecules turned out for pKi.
{"MOLECULE": "C#CCN1CCC(NC(=O)Nc2nc3nn(C)cc3c3nc(-c4ccco4)nn23)CC1", "VALUE": 7.60}
{"MOLECULE": "CCCn1c(=O)c2[nH]c(-c3ccc(OCC(=O)O)cc3)nc2n(CCC)c1=O", "VALUE": 5.40}

A. CCCCCCC(C)Nc1nc2nn(C)cc2c2nc(-c3ccco3)nn12 (stereo not drawn)
B. C=CCN1C(=O)N2CC(C)N=C2c2[nH]c(-c3cc(C)n(C)n3)nc21 (racemic)
Q: Which value of pKi is greater, the one for A or the one for B ? Please respond with the label that marks your chosen entry.
A: B

###

Literature roundup of Adenosine receptor A3 (Homo sapiens) data, read-out Ki.
READOUT_KIND: Ki (µM)

Here is how some molecules turned out for Ki.
{"COMPOUND_STRUCTURE_STRING": "c1coc(COc2nc3ccccc3n3nc(-c4ccco4)nc23)c1", "Ki, µM": 0.0661}
{"COMPOUND_STRUCTURE_STRING": "Cn1cc2c(Cl)nc(NC(=O)c3ccc(C(F)(F)F)cc3)nc2n1", "Ki, µM": 33.5}
{"COMPOUND_STRUCTURE_STRING": "O=c1oc2c(O)c(O)ccc2cc1-c1ccsc1", "Ki, µM": 5.31}
{"COMPOUND_STRUCTURE_STRING": "Nc1nc(NCCc2ccccc2)nc2sc(-c3ccccc3)nc12", "Ki, µM": 2.27}
{"COMPOUND_STRUCTURE_STRING": "COc1ccc(-n2cc3nc(-c4ccccc4)nc(NC(=O)Cc4ccccc4)c3n2)cc1", "Ki, µM": 0.024}
{"COMPOUND_STRUCTURE_STRING": "Cn1cc2c(NC(=O)Nc3ccccc3)nc(-c3ccccc3)nc2n1", "Ki, µM": 0.0209}
{"COMPOUND_STRUCTURE_STRING": "CCCn1c(=O)c2[nH]c(-c3cnn(Cc4nc(-c5ccccc5OC)no4)c3)nc2n(CCC)c1=O", "Ki, µM": 0.41}
{"COMPOUND_STRUCTURE_STRING": "Nc1ccc(-n2nc3c(N)nc(-c4ccccc4)cn3c2=O)cc1", "Ki, µM": 0.65}

I. CC(C)(C)Cn1cc2c(Cl)nc(NC(=O)c3ccc(F)cc3)nc2n1
II. CCCc1c(C(=O)SCC)c(CC)nc(-c2ccccc2)c1C(=O)OCCCF
Q: Which value of Ki is greater, the one for I or the one for II ? Please respond with the label that marks your chosen entry.
A: I

###

pKi: −log10 of the molar value.
Literature roundup of Adenosine receptor A3 (Homo sapiens) data, read-out pKi.
READOUT_KIND: pKi

Here is how some molecules turned out for pKi.
{"MOLECULE": "COc1ccc(C(=O)Nc2nc(-c3ccccc3)ns2)cc1", "VALUE": 7.09}
{"MOLECULE": "C=CCN(CC=C)S(=O)(=O)c1ccc(NC(=O)Nc2ncnc3c2ncn3C2O[C@H](C(=O)NCC)C(O)C2O)cc1 (single isomer, unassigned)", "VALUE": 8.00}
{"MOLECULE": "O[C@@H]1[C@H](O)[C@@H]2C[C@@H]2[C@H]1n1cnc2c(NCCc3ccccc3)nc(I)nc21", "VALUE": 7.64}
{"MOLECULE": "Nc1nc(-c2ccco2)nc2cn(Cc3ccccc3O)nc12", "VALUE": 6.04}

P. CC(O)CNc1nc2ccccc2n2nc(-c3ccco3)nc12 (stereo not drawn)
Q. O=C(Cc1ccccc1)Nc1nccn2cc(-c3ccccc3)nc12
R. Cn1cc2c(nc(NCCCCO)n3nc(-c4ccco4)nc23)n1
S. c1ccc(CNc2nc(NC3CCCCC3)c3[nH]cnc3n2)cc1
T. Cn1cc2c(nc(NC(=O)Cc3ccc4ccccc4c3)n3nc(-c4ccco4)nc23)n1
Q: Arrange these 5 molecules in increasing order of pKi. Would you mind listing the labels in the order requested?
A: S, Q, R, P, T

A. O=C(Nc1cc(-c2ccc3c(c2)OCO3)nc(-c2ccccc2)n1)C1CC1
B. Cc1nc2sc(-c3cccc(Cl)c3)nc2c(=O)[nH]1
Q: // returns A or B , whichever has the lower pKi Please respond with the label that marks your chosen entry.
A: B
